# key: entry, value: Glucose Utilization, Percent of Control Activity With Insulin
# Test system: C2C12 cells
# assay.protocol: Glucose utilization in cultured C2C12 cells and insulin dependence
# Type: cell-based, mouse
# condition.set: peptide 10 μM with 5-20 nM insulin, 22 h, glucose in medium relative to insulin treated cells
Non-standard residues stand in square brackets, D forms with d. No end group written: not given here.
recorded.endpoint: Glucose Utilization, Percent of Control Activity With Insulin (%)

substance | val
29 (RRMMGMVYQCLEG[dA]) [compound 29] | 92.3
14 (RRMMGMVFQCLEG[dA]) [compound 14] | 112.3
19 (RRMVFQCLCG[dA]; cysteine pairing not given here) [compound 19] | 76.5
